- test: activity coefficient (dimensionless); of the first substance listed, at infinite dilution; xn = mol fraction of the nth substance listed
- details: 302.8 K; 101.3 kPa; Liquid; Chromatography; x1 = 0
reported_property: activity coefficient

Please review the following examples before continuing.
{"compound": "CCCCC [pentane] + CCn1cc[n+](C)c1.N#C[B-](C#N)(C#N)C#N", "activity coefficient": 10.3}
{"compound": "CC1CCCCC1 [methylcyclohexane] + CCn1cc[n+](C)c1.N#C[B-](C#N)(C#N)C#N", "activity coefficient": 20.7}

(P) CCCCCCC [heptane] + CCn1cc[n+](C)c1.N#C[B-](C#N)(C#N)C#N
(Q) C1CCCCC1 [cyclohexane] + CCn1cc[n+](C)c1.N#C[B-](C#N)(C#N)C#N
(R) CCCCCCCCC [nonane] + CCn1cc[n+](C)c1.N#C[B-](C#N)(C#N)C#N
(S) CCCCCCCC [octane] + CCn1cc[n+](C)c1.N#C[B-](C#N)(C#N)C#N
(T) CCCCCC [hexane] + CCn1cc[n+](C)c1.N#C[B-](C#N)(C#N)C#N
Please list these compounds in decreasing order of activity coefficient. Respond with an ordered listing of the labels, as requested.
R, S, P, T, Q
